Origin of the recorded values: patent US6506769B2

Entries and their melting point

Past entries and their recorded results:
molecule	melting point
Cc1c(-c2cncn2C)[nH]c(=O)c2c1ccc1nc(Nc3c(Cl)cccc3Cl)n(C)c12 [Example 21]	> 300 °C
COC(=O)/C=C/c1[nH]c(=O)c2c(ccc3nc(Nc4c(Cl)cccc4Cl)n(C)c32)c1C [Example 12]	> 300 °C
Cc1[nH]c(=O)c2c(ccc3nc(Nc4c(Cl)cccc4Cl)n(C)c32)c1CCN1CCOCC1 [Example 8]	285 to 290 °C

Query :: Reported melting point, molecule Cc1c(/C=C/CO)[nH]c(=O)c2c1ccc1nc(Nc3c(Cl)cccc3Cl)n(C)c12 [Example 14] : ____
Result :: 298 to 300 °C

Query :: Moving on to the next molecule: CC1(C)C(=O)NC(=O)c2c1ccc1nc(Nc3c(Cl)cccc3Cl)sc21 [Example 5]
Result :: > 300 °C

Query :: Now give it for Cc1c(-c2cnco2)[nH]c(=O)c2c1ccc1nc(Nc3c(Cl)cccc3Cl)n(C)c12 [Example 20] too.
Result :: > 300 °C

Query :: Try Cn1c(Nc2c(Cl)cccc2Cl)nc2ccc3c4c([nH]c(=O)c3c21)CCC4 [Example 27] next.
Result :: > 300 °C (dec.)

###

parameter: melting point

For orientation, consider the following solved cases.
compound	melting point
CC1(C)CNC(=O)c2c1ccc1nc(Nc3c(Cl)cccc3Cl)[nH]c21	287 to 290 °C
Cc1c(/C=C/CN2CCOCC2)[nH]c(=O)c2c1ccc1nc(Nc3c(Cl)cccc3Cl)n(C)c12	175 to 177 °C

Query :: For Cc1[nH]c(=O)c2c(ccc3nc(Nc4c(Cl)cccc4Cl)n(C)c32)c1CC(=O)N1CCOCC1 , what is its reported melting point?
Result :: > 300 °C

Query :: Input Cc1[nH]c(=O)c2c(ccc3nc(Nc4c(Cl)cccc4Cl)[nH]c32)c1C
Result :: > 300 °C

Query :: Note, next up: Cc1c(/C=C/CN)[nH]c(=O)c2c1ccc1nc(Nc3c(Cl)cccc3Cl)n(C)c12
Result :: > 300 °C

###

Reported melting point values for a set of compounds

Known results for compounds:
compound	melting point
O=c1[nH]c2ccccc2c2ccc3nc(Nc4c(Cl)cccc4Cl)[nH]c3c12 [Example 26]	> 300 °C
CCOC(=O)Cc1c(C)[nH]c(=O)c2c1ccc1nc(Nc3c(Cl)cccc3Cl)n(C)c12 [Example 9]	280 to 285 °C (dec.)
C=Cc1[nH]c(=O)c2c(ccc3nc(Nc4c(Cl)cccc4Cl)n(C)c32)c1C [Example 15]	> 300 °C
C=CC(O)c1[nH]c(=O)c2c(ccc3nc(Nc4c(Cl)cccc4Cl)n(C)c32)c1C (stereo not shown) [Example 16]	235 to 236 °C
Cc1c(CNCc2ccccc2)[nH]c(=O)c2c1ccc1nc(Nc3c(Cl)cccc3Cl)n(C)c12 [Example 19]	231 to 234 °C

Query :: Look at this compound and give its reported melting point. Cc1[nH]c(=O)c2c(ccc3nc(Nc4c(Cl)cccc4Cl)n(C)c32)c1CCO [Example 10]
Result :: > 300 °C

Query :: CC1(C)C(=O)NC(=O)c2c1ccc1nc(Nc3c(Cl)cccc3Cl)[nH]c21 [Example 1] ?
Result :: 290 to 292 °C
